- Tested Target: Thromboxane A2 receptor (Homo sapiens)
- Sequence (P21731 whole entry): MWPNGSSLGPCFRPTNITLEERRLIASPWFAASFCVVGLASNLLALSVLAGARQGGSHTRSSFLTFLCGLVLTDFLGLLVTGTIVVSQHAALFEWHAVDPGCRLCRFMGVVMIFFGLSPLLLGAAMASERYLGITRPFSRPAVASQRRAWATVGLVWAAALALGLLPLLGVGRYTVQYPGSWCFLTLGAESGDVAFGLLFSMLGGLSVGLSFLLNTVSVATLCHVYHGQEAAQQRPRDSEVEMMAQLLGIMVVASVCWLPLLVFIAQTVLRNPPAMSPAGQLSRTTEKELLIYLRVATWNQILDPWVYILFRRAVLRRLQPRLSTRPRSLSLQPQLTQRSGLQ
Reported Endpoint: Ki (nM)

# Compound, Unit String, Ki
data = [
    ("C[S+]([O-])c1cccc2c3c(n(Cc4ccc(Cl)cc4)c12)C(CC(=O)O)CCC3 (centres undefined)", "nM", 172),
    ("CC(=O)c1cc(S(C)(=O)=O)cc2c3c(n(Cc4ccc(Cl)cc4)c12)C(CC(=O)O)CC3 (centres undefined)", "nM", 3600),
    ("CS(=O)(=O)c1cc(Br)c2c(c1)c1c(n2Cc2ccc3ccc(Cl)cc3n2)C(CC(=O)O)CC1 (centres undefined)", "nM", 180),
    ("CC(C)(C)c1ccc(Cn2c3c(c4cc(S(C)(=O)=O)cc(Br)c42)CCC3CC(=O)O)cc1 (centres undefined)", "nM", 820),
    ("CS(=O)(=O)c1cc(-c2cccs2)c2c(c1)c1c(n2Cc2ccc(Cl)cc2)C(CC(=O)O)CC1 (centres undefined)", "nM", 730),
]

a: CN(C)C(=O)c1cccc2c3c(n(Cc4ccc(Cl)cc4)c12)C(CC(=O)O)CCC3 (centres undefined)
b: CS(=O)(=O)c1ccc2c(c1)c1c(n2Cc2ccc(Cl)cc2)C(CC(=O)O)CCC1 (centres undefined)
c: CC(O)c1cc(S(C)(=O)=O)cc2c3c(n(Cc4ccc(Cl)cc4)c12)C(CC(=O)O)CC3 (centres undefined)
d: CN(C)S(=O)(=O)c1ccc2c(c1)c1c(n2Cc2ccc(Cl)cc2)C(CC(=O)O)CC1 (centres undefined)
Place the items in sequence of falling Ki. Give the order by naming the labels one after another as requested.
c, a, d, b
(c: 16000 nM, a: 3700 nM, d: 2300 nM, b: 990 nM)

###

- Tested Target: Prostaglandin D2 receptor (Homo sapiens)
- Assay Text: Activity at DP receptor assessed as inhibition of PGD2-induced cAMP accumulation in platelet rich plasma
- Type: functional
pIC50: −log10 of the molar value.
Reported Endpoint: pIC50

# Compound, Reported Endpoint, Reported Result
data = [
    ("CC(O)c1cc(S(C)(=O)=O)cc2c3c(n(Cc4ccc(Cl)cc4)c12)[C@@H](CC(=O)O)CC3 (some centres not stated)", "pIC50", 8.07),
    ("CC(=O)c1cc(S(C)(=O)=O)cc2c3c(n(Cc4ccc(Cl)cc4)c12)[C@@H](CC(=O)O)CC3", "pIC50", 8.10),
]

###

- Tested Target: Prostaglandin D2 receptor (Homo sapiens, UniProt Q13258)
- Sequence (Q13258 whole entry): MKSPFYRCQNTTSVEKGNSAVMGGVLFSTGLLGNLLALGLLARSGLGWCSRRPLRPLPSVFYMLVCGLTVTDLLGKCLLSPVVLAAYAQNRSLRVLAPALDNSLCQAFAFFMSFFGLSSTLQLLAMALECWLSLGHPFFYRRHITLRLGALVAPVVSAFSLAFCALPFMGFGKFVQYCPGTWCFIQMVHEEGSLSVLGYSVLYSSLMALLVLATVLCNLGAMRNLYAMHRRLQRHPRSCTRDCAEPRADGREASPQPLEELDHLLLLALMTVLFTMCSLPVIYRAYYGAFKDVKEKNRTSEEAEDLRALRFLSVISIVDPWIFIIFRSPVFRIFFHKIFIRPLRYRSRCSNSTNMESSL
- Assay Text: Activity at DP receptor assessed as inhibition of PGD2-induced cAMP accumulation in platelet
- Format: functional
Reported Endpoint: IC50 (nM)

# Compound, Tested Target, IC50 / nM
data = [
    ("CC(O)c1cc(S(C)(=O)=O)cc2c3c(n(Cc4ccc(Cl)cc4)c12)[C@@H](CC(=O)O)CC3 (some centres not stated)", "Prostaglandin D2 receptor (Homo sapiens, UniProt Q13258)", 2),
    ("CC(=O)c1cc(S(C)(=O)=O)cc2c3c(n(Cc4ccc(Cl)cc4)c12)[C@@H](CC(=O)O)CC3", "Prostaglandin D2 receptor (Homo sapiens, UniProt Q13258)", 2),
]

###

- Tested Target: UniProt:P43119
- Sequence (P43119 whole entry): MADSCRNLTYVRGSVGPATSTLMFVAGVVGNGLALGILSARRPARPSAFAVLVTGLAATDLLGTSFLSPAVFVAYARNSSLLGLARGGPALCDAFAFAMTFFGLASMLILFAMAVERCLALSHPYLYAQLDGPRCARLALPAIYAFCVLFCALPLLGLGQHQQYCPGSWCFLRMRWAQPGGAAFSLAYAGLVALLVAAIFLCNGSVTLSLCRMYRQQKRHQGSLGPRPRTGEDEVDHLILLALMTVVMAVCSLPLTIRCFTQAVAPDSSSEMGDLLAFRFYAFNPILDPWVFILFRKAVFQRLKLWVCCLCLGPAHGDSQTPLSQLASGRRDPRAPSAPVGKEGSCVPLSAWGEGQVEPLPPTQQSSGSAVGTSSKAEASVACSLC
- Assay Text: Binding affinity to IP receptor
pKi: −log10 of the molar value.
Reported values of pKi for individual entries

# Compound, Tested Target, Reported Result
rows = [
    ("CC(=O)c1cc(S(C)(=O)=O)cc2c3c(n(Cc4ccc(Cl)cc4)c12)[C@@H](CC(=O)O)CC3", "UniProt:P43119", "< 4.70"),
]

// next entry
Query: pKi; subject: O=C(O)CC1CCCc2c1n(Cc1ccc(Cl)cc1)c1c(F)cc(F)cc21 (configuration not stated)
< 5.70

###

Sequence of the target: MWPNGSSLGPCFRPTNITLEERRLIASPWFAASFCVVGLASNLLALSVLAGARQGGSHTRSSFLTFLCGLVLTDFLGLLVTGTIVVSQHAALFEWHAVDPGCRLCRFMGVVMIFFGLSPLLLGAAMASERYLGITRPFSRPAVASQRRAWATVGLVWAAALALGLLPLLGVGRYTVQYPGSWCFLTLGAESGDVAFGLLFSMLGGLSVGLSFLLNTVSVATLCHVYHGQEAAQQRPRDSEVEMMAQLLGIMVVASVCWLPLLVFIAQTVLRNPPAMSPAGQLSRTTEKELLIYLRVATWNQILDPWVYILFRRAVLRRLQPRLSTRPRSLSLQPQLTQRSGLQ
pKi: −log10 of the molar value.
Reported Endpoint: pKi

a: C[S+]([O-])c1cccc2c3c(n(Cc4ccc(Cl)cc4)c12)[C@@H](CC(=O)O)CCC3 (single isomer, unassigned; 17)
b: C[S+]([O-])c1cccc2c3c(n(Cc4ccc(Cl)cc4)c12)[C@@H](CC(=O)O)CCC3 (single isomer, unassigned; 16)
c: CS(=O)(=O)c1cc(Br)c2c(c1)c1c(n2Cc2cccc(Cl)c2)C(CC(=O)O)CC1 (centres undefined)
d: O=Cc1cccc2c3c(n(Cc4ccc(Cl)cc4)c12)C(CC(=O)O)CCC3 (centres undefined)
Lab note: pKi ranking, ascending, for the listed compounds. Give the order by naming the labels one after another as requested.
c, b, a, d
(c: 6.12, b: 6.89, a: 7.33, d: 8.18)

###

- Tested Target: Prostaglandin D2 receptor (Homo sapiens)
- Sequence (Q13258 whole entry): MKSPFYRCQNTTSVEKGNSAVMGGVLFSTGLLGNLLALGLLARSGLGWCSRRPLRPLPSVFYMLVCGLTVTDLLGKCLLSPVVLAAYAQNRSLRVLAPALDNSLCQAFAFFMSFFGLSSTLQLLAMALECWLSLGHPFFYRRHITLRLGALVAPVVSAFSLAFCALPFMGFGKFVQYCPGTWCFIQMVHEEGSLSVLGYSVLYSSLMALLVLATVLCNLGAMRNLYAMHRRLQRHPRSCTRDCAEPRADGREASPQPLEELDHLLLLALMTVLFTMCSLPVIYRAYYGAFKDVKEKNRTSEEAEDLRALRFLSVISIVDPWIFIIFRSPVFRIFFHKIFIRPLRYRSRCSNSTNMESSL
- Assay Text: Binding affinity to DP receptor
Reported Endpoint: Ki (nM)

1: CC(C)c1cccc2c3c(n(Cc4ccc(Cl)cc4)c12)C(CC(=O)O)CCC3 (stereo unspecified)
2: CC(=O)c1cc(S(C)(=O)=O)cc2c3c(n(Cc4ccc(Cl)cc4)c12)C(CC(=O)O)CC3 (stereo unspecified)
3: CS(=O)(=O)c1cc(Br)c2c(c1)c1c(n2Cc2ccc3ccc(Cl)cc3n2)C(CC(=O)O)CC1 (stereo unspecified)
// ranking: key=Ki, reverse=True Give the order by naming the labels one after another as requested.
2, 1, 3
(2: 9.5 nM, 1: 1.7 nM, 3: 1 nM)

P: CC(O)c1cc(S(C)(=O)=O)cc2c3c(n(Cc4ccc(Cl)cc4)c12)C(CC(=O)O)CC3 (stereo unspecified)
Q: CS(=O)(=O)c1ccc2c(c1)c1c(n2Cc2ccc(Cl)cc2)C(CC(=O)O)CCC1 (stereo unspecified)
R: CS(=O)(=O)c1cc(Br)c2c(c1)c1c(n2Cc2ccc(Cl)cc2)C(CC(=O)O)CC1 (stereo unspecified)
S: C[S+]([O-])c1cccc2c3c(n(Cc4ccc(Cl)cc4)c12)C(CC(=O)O)CCC3 (stereo unspecified)
Place the items in sequence of falling Ki. Give the order by naming the labels one after another as requested.
Q, P, S, R
(Q: 80 nM, P: 8.5 nM, S: 2.8 nM, R: 1.7 nM)
